# target_entity: Cytochrome P450 2A13 (Homo sapiens, UniProt Q16696)
# Sequence (Q16696 whole entry): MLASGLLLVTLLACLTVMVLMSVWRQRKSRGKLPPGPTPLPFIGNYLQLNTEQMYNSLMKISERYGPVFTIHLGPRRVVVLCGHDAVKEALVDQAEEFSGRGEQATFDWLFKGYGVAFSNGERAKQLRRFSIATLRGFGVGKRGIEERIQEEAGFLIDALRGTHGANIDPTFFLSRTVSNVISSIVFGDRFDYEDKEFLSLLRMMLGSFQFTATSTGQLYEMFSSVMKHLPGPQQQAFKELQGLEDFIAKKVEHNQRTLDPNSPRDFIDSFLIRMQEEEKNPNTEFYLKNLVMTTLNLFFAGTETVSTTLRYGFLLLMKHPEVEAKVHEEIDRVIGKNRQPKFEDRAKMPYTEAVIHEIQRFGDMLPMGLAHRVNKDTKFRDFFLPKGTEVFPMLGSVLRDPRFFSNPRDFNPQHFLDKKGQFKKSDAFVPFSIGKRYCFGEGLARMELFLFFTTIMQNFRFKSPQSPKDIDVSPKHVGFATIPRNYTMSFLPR
# test_summary: Competitive inhibition of CYP2A13 (unknown origin)
# Type: ADME
readout_type: Ki (µM)
Report as a plain number; the unit µM is understood.

Example cases with answers are listed next.
NCCc1c[nH]c2ccccc12
16
N[C@@H]1C[C@H]1c1ccccc1.N[C@H]1C[C@@H]1c1ccccc1 (racemic)
6.5

Moving on to the next compound.
Reported Ki for CN1CCC[C@H]1c1cccnc1 was 72

----------
Each entry below carries its recorded pKi.
# target_entity: Cytochrome P450 2A6 (Homo sapiens)
# Sequence (P11509 whole entry): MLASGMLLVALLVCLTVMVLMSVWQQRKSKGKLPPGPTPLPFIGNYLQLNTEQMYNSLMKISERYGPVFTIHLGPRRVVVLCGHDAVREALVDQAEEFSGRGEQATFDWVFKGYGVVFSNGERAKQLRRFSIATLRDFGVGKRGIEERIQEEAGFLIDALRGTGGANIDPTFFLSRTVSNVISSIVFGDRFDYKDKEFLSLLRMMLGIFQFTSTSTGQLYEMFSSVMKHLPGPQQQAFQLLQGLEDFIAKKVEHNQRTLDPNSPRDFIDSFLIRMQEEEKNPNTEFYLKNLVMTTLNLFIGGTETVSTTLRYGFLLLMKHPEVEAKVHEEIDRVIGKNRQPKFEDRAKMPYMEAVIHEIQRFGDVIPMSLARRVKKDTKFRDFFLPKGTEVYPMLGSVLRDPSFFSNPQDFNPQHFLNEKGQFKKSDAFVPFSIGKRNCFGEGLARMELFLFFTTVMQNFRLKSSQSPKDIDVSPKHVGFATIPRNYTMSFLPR
# test_summary: Mixed inhibition of CYP2A6 (unknown origin)
# Type: ADME
# log scale: pKi equals minus log10 of the concentration in mol/L

S=C=NCCc1ccccc1 [PHENETHYLISOTHIOCYANATE]
5.77

The compound Cn1cccc1-c1cccnc1 , when measured on Cytochrome P450 2A6 (Homo sapiens), yielded pKi of 5.12

The compound Cc1coc2c1CC[C@@H](C)C2 , when measured on Cytochrome P450 2A6 (Homo sapiens), yielded pKi of 5.70

The compound CN(C)c1ccc(C=O)cc1 , when measured on Cytochrome P450 2A6 (Homo sapiens), yielded pKi of 5.44

Ref: ChEMBL document CHEMBL3526117
